- Tested on: Escherichia coli TOP10
- methodSummary: shrunken log2 fold change of peptide-encoding DNA abundance (4.5 h post-induction vs induction); higher = less antimicrobial activity (less host growth inhibition)
- setupConditions: time post-induction: 4.5 h; library: site-saturation at positions 5, 18, 19, 20
Assign a class from recorded shrunken log2 fold change; defined classes: b0: < -0.03; b1: ≥ -0.03 and < 0.05; b2: ≥ 0.05

>>> print(df.to_string())
                biosequence  labelvalue
 0  RRIRNRPPRLPRPRPRPYQEPRP          b1
 1  RRIRKRPPRLPRPRPRPLWSPRP          b1
 2  RRIRIRPPRLPRPRPRPTNTPRP          b0
 3  RRIRARPPRLPRPRPRPISMPRP          b1
 4  RRIRIRPPRLPRPRPRPVNFPRP          b1
 5  RRIRHRPPRLPRPRPRPGGPPRP          b0
 6  RRIRVRPPRLPRPRPRPFRQPRP          b2
 7  RRIRSRPPRLPRPRPRPMIMPRP          b0
 8  RRIRTRPPRLPRPRPRPDVPPRP          b1
 9  RRIRNRPPRLPRPRPRPKTWPRP          b2
10  RRIRMRPPRLPRPRPRPARRPRP          b2
11  RRIRFRPPRLPRPRPRPLVGPRP          b0
12  RRIRIRPPRLPRPRPRPLESPRP          b2
13  RRIRARPPRLPRPRPRPTKQPRP          b0
14  RRIRWRPPRLPRPRPRPQLTPRP          b2
15  RRIRGRPPRLPRPRPRPVRPPRP          b2

----------
Quick list: shrunken log2 fold change per entry.
- Test system: Escherichia coli TOP10;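 also: peptides expressed intracellularly from a pBAD plasmid library in pooled LB shake-flask culture, induced with 0.3% L-arabinose, DNA abundance read by NGS, three biological replicates, DESeq2 with apeglm shrinkage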
- methodSummary: shrunken log2 fold change of peptide-encoding DNA abundance (4.5 h post-induction vs induction); higher = less antimicrobial activity (less host growth inhibition)
- setupConditions: time post-induction: 4.5 h; library: site-saturation at positions 5, 18, 19, 20
measurementType: shrunken log2 fold change

>>> df
                biosequence            measurementtype  observedvalue
 0  RRIRDRPPRLPRPRPRPRWNPRP  shrunken log2 fold change         0.0976
 1  RRIRRRPPRLPRPRPRPEVMPRP  shrunken log2 fold change          0.212
 2  RRIRFRPPRLPRPRPRPSKNPRP  shrunken log2 fold change         -0.519
 3  RRIRFRPPRLPRPRPRPWEYPRP  shrunken log2 fold change         0.0231
 4  RRIRWRPPRLPRPRPRPSNRPRP  shrunken log2 fold change         -0.174
 5  RRIRPRPPRLPRPRPRPMIQPRP  shrunken log2 fold change         0.0205
 6  RRIRIRPPRLPRPRPRPQDGPRP  shrunken log2 fold change         0.0409
 7  RRIRERPPRLPRPRPRPDIIPRP  shrunken log2 fold change         0.0463
 8  RRIRQRPPRLPRPRPRPNRCPRP  shrunken log2 fold change        -0.0278
 9  RRIRMRPPRLPRPRPRPYMVPRP  shrunken log2 fold change        -0.0313
10  RRIRPRPPRLPRPRPRPMREPRP  shrunken log2 fold change           1.07
11  RRIRERPPRLPRPRPRPYGKPRP  shrunken log2 fold change       -0.00133
12  RRIRIRPPRLPRPRPRPCTYPRP  shrunken log2 fold change        -0.0592
13  RRIRVRPPRLPRPRPRPARPPRP  shrunken log2 fold change          0.486
14  RRIRERPPRLPRPRPRPVPQPRP  shrunken log2 fold change         -0.195
15  RRIRWRPPRLPRPRPRPTPEPRP  shrunken log2 fold change          0.711
16  RRIRSRPPRLPRPRPRPMVVPRP  shrunken log2 fold change          0.149
17  RRIRVRPPRLPRPRPRPEQSPRP  shrunken log2 fold change          0.362
18  RRIRDRPPRLPRPRPRPMFTPRP  shrunken log2 fold change         -0.174
19  RRIRTRPPRLPRPRPRPMYCPRP  shrunken log2 fold change         -0.873
20  RRIRQRPPRLPRPRPRPRNLPRP  shrunken log2 fold change          0.242
21  RRIRMRPPRLPRPRPRPGQVPRP  shrunken log2 fold change          0.418
22  RRIRLRPPRLPRPRPRPMNWPRP  shrunken log2 fold change          0.134
